Catalogue of apparent KD of MS2 coat protein readings, one per entry.
test system: MS2 coat protein; assay: apparent KD of MS2 coat protein; designed switch direction (-1 OFF switch, 1 ON switch): 1; higher = weaker reporter binding; conditions: input ligand: none
Supply the numeric figure in nM, leaving out any unit text.

| BIOPOLYMER SEQUENCE | SYSTEM TESTED | NUMBER |
| --- | --- | --- |
| GCUACCAAUAAAGCCAACAUGAGGAUCACCCAUGUAUGUUGGUAGGAUAUCGUUUGCAAAGCAAACGAGAAGGGCUAAGGUAGC [Mat - Same State NG 3 - JL Mod - D76] (Eterna round: R96, puzzle: Same State NG 3) | MS2 coat protein | 43.9 |

Next, consider the following sequence.
Request: Look up and report apparent KD of MS2 coat protein, with MS2 coat protein as system, for GCUUCGGCGGUAGGAUAUCUAGGAUAUGGGAAAGACUAAGUCUGUAGGUCACCUAACCCAGAAGGAGAGAAGGACAGGUUCGCC [pwkr ssNG2 2FMN + F9.35] (Eterna round: R96, puzzle: Same State NG 2)
Response: 1.98
